Recorded values, source PubChem BioAssay (NCI).

- Test system: SF-295 CNS
- Protocol text: NCI tumour cell line growth inhibition, 48 h
TGI: recorded values

Recorded TGI, per entry:
Cc1cc(N(CCC#N)CCC#N)ccc1/C=C1/CN(N2C(=O)/C(=C/c3ccc(N(CCC#N)CCC#N)cc3C)N=C2c2ccccc2)C(c2ccccc2)=N1 ... > 100 µM
CNC(=O)Nc1cc2c3c(c1)CCCN3CCC2 ... > 10 µM
CC(C)(Cl)CCC1=C(Cl)C(=O)c2ccccc2C1=O ... 11 µM
CC1=C(C)SC(=C2Sc3c(n(C)c(=O)[nH]c3=O)S2)S1 ... > 100 µM
Cc1cc(N(CCOS(C)(=O)=O)CCOS(C)(=O)=O)ccc1C=Nc1ccc(-c2csc(-c3ccccc3)n2)c(Cl)c1 ... 29.8 µM

Task: Name the recorded TGI for `O=C(O)C(=O)Cc1ccc2c(c1)OCO2` .
Result: > 100 µM

Task: Name the recorded TGI for `COc1cc(C(=O)C/C(CCC(=O)Nc2ccccc2[N+](=O)[O-])=N\NC(=O)C(N)=O)ccc1O` .
Result: > 100 µM

---

TGI: recorded values
- System: LOX IMVI melanoma
- Protocol text: NCI tumour cell line growth inhibition, 48 h

Recorded TGI, per entry:
CN(C)c1ccc(N=Nc2cccc3ccoc23)cc1 ... > 100 µM
Cc1cc(Cl)nc(NC(=O)CSc2ccc(Cl)cc2)n1 ... > 100 µM
O=S(=O)(NCCNc1cc(-c2cn(-c3ccccc3)nc2-c2cccc(O)c2)ccn1)c1ccc(C(F)(F)F)cc1 ... 3.29 µM
CCC1CCc2nc3sc(C(=O)Nc4ccccc4F)c(N)c3cc2C1 (stereo unspecified) ... > 100 µM
COc1ccc(-c2coc3ncnc(N)c23)cc1 ... > 25 µM
NC(=S)SCCC(=O)O ... > 100 µM
CCCCCCCCCCCCCCCCOP(=O)(O)OP(=O)(O)OCC1OC(n2ccc(N)nc2=O)CC1O (stereo unspecified) ... > 100 µM
CCOC(=O)c1ccc2c(c1)nc1n2C(c2c(F)cccc2F)SC1 (stereo unspecified) ... 58.6 µM

Task: Name the recorded TGI for COC(=O)C1=CC(O)CCC1c1ccc(OC)cc1 (stereo unspecified) .
Result: > 100 µM

Task: Name the recorded TGI for `CCCCOC(=O)CN1C(=O)c2ccccc2C1=O` .
Result: > 100 µM

Task: Name the recorded TGI for `Cc1ccc2c(c1)C(=O)/C(=C1/CCc3ccc(C)cc31)C2` .
Result: > 100 µM

Task: Name the recorded TGI for COC(=O)[C@@H]1O[C@]12C(CO[Si](C)(C)C(C)(C)C)OC(n1ccc(=O)[nH]c1=O)C2O[Si](C)(C)C(C)(C)C (stereo partly specified) .
Result: 42.5 µM

Task: Name the recorded TGI for `CSc1ccc(-c2cn3ccsc3n2)c(O)c1` .
Result: > 56.5 µM

---

- Tested on: TK-10 renal
- Protocol text: NCI tumour cell line growth inhibition, 48 h
TGI: recorded values
Only the number, expressed in µM, is required.

Recorded TGI, per entry:
O=c1oc2ccc(Cl)cc2c(=O)n1-c1ccc(Cl)cc1F ... 17.7
Cc1cc(N(CCC#N)CCC#N)ccc1/C=C1/CN(N2C(=O)/C(=C/c3ccc(N(CCC#N)CCC#N)cc3C)N=C2c2ccccc2)C(c2ccccc2)=N1 ... 75.9

We next turn to a different compound, shown below.
Task: Name the recorded TGI for `C=CCNC1=C2C[C@@H](C)C[C@@H](OC)[C@H](OC(=O)CN(C)C)[C@H](C)/C=C(\C)[C@@H](OC(N)=O)[C@H](OC)/C=C\C=C(/C)C(=O)NC(=CC1=O)C2=O` .
Result: 16.3
